tested on: Bone marrow cell; test: Induction of mineralization in C57BL mouse bone marrow cells co-cultured with human PC3 cells at 50 to 100 nM supplemented with fresh medium containing compound every 3 days for 10 to 15 days by alizarin red dye based assay; type: functional
Calls of active or inactive are those of the source. The rule behind the calls is not given here.
Answer with one of the outcomes given here: active, inactive

Q: # outcome recorded in this test, key = O.O=P(O)(O)C(O)(Cn1ccnc1)P(=O)(O)O [ZOLEDRONIC ACID]
Result: active

Q: Field: outcome | Entry: O=P(O)(O)C(O)(Cc1cccnc1)P(=O)(O)O [RISEDRONIC ACID]
Result: inactive

Q: Give the logged outcome of this assay for the following molecule: `O=P(O)(O)C(O)(CNc1ncccn1)P(=O)(O)O`
Result: active

Q: Please share the test call associated with NCCCC(O)(P(=O)(O)O)P(=O)(O)O [ALENDRONIC ACID] .
Result: inactive

* * *

test system: Hydroxyapatite; assay: Binding affinity to hydroxyapatite at 100 uM using sodium salt form of compound after 5 mins by ESI/MS analysis
For each record, write down the corresponding Activity.
// return numeric value only (unit: %, not printed)

Q: Sample `O=P(O)(O)C(O)(Cc1cccnc1)P(=O)(O)O` — what was its Activity?
Result: 87

Q: Return reported Activity; argument: `O=P(O)(O)C(O)(CNc1ncnc2ccccc12)P(=O)(O)O`
Result: 81

Q: If you can, please state the reported Activity value of `O=P(O)(O)C(O)(CNc1ncccn1)P(=O)(O)O` .
Result: 90

Q: Look up Activity: `O=P(O)(O)C(O)(CCNc1ncc2ccccc2n1)P(=O)(O)O`
Result: 84

* * *

Record form. Attribute: inhibition. Fill in for each entry.
target: Farnesyl pyrophosphate synthase (Homo sapiens) (UniProt P14324); assay: Inhibition of recombinant human C-terminal His6-tagged FPPS expressed in Escherichia coli BL21 at 1 to 10 uM using DMAPP and IPP as substrates pretreated for 15 mins followed by substrates addition and measured after 1 hr by colorimetric method relative to control
Sequence (P14324 whole entry): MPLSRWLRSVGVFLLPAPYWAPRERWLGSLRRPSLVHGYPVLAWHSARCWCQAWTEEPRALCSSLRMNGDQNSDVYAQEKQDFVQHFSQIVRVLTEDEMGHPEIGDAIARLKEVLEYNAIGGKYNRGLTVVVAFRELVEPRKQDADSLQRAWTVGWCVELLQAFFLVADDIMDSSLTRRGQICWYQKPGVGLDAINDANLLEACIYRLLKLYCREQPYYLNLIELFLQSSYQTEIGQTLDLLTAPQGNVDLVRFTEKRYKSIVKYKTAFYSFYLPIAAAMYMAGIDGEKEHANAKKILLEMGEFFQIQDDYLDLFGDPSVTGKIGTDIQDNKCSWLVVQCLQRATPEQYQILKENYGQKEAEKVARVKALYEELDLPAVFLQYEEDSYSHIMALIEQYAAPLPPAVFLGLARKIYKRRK

Q: Tell me the measured inhibition of `O=P(O)(O)C(O)(CSc1nc2ccccc2s1)P(=O)(O)O` , please.
Result: 68 to 79%

Q: Entry `O=P(O)(O)C(O)(CNc1nc(-c2ccccc2)nc2ccccc12)P(=O)(O)O` : reported inhibition = ?
Result: 68 to 79%

Q: Could you share which inhibition value was measured for `O=P(O)(O)C(O)(CCCNc1ncc2ccccc2n1)P(=O)(O)O` ?
Result: 68 to 79%

Q: Which inhibition value belongs to `O=P(O)(O)C(O)(CNc1ncc2ccccc2n1)P(=O)(O)O` ?
Result: 68 to 79%

Q: What value of inhibition has been reported for the following molecule? `O=P(O)(O)C(O)(CCNc1ncnc2ccccc12)P(=O)(O)O`
Result: 68 to 79%

Q: Return reported inhibition; argument: `O=P(O)(O)C(O)(CCCNc1ncnc2ccccc12)P(=O)(O)O`
Result: 68 to 79%

Q: Could you tell me which inhibition is on file for `O=P(O)(O)C(O)(CCNc1ncccn1)P(=O)(O)O` ?
Result: 68 to 79%

Q: I'd like to know its inhibition. The molecule in question is `O=P(O)(O)C(O)(CCCCc1ncnc2ccccc12)P(=O)(O)O`
Result: 68 to 79%

Q: Query (molecule): `O=P(O)(O)C(O)(CNc1nc2ccccc2s1)P(=O)(O)O` ; field requested: inhibition
Result: 68 to 79%

Q: Reported inhibition for `O=P(O)(O)C(O)(CNc1ncccn1)P(=O)(O)O` : what is it?
Result: 68 to 79%

Q: Item under review: `O=P(O)(O)C(O)(CCNc1nc(-c2ccccc2)nc2ccccc12)P(=O)(O)O` . Reported inhibition?
Result: 68 to 79%

Q: // lookup inhibition for `O=P(O)(O)C(O)(CCNc1ncc2ccccc2n1)P(=O)(O)O`
Result: 68 to 79%

Q: Fill in the blank: the reported inhibition of `O=P(O)(O)C(O)(CSc1nc2ccccc2[nH]1)P(=O)(O)O` is ____.
Result: 68 to 79%

Q: Could you share which inhibition value was measured for `O=P(O)(O)C(O)(CNc1ncnc2ccccc12)P(=O)(O)O` ?
Result: 68 to 79%

Q: Endpoint output: inhibition of `O=P(O)(O)C(O)(CCCCc1ncc2ccccc2n1)P(=O)(O)O` . Value?
Result: 68 to 79%

Q: Please report the recorded inhibition for `O=P(O)(O)C(O)(CCCNc1ncccn1)P(=O)(O)O` .
Result: 68 to 79%

Q: Look up inhibition: CC(Nc1ncnc2ccccc12)C(O)(P(=O)(O)O)P(=O)(O)O (racemic)
Result: 68 to 79%

Q: # inhibition lookup, item CC(Nc1ncc2ccccc2n1)C(O)(P(=O)(O)O)P(=O)(O)O (racemic)
Result: 68 to 79%

Q: Quick one: inhibition of `O=P(O)(O)C(O)(CCCCc1ncccn1)P(=O)(O)O` ?
Result: 68 to 79%

Ref: ChEMBL document CHEMBL4265921
